# IC50 per entry for Cholinesterase (Homo sapiens)
result_type: IC50 (µM)

{"given_smiles": "C1=Nc2sc3c(c2C2=NCCN12)CCN(Cc1ccccc1)C3", "lt_gt_eq": "=", "readout_number": 89.9}
{"given_smiles": "C1=Nc2sc3c(c2C2=NCCN12)CCCC3", "lt_gt_eq": "=", "readout_number": 88}
{"given_smiles": "C1=Nc2sc3c(c2C2=NCCCN12)CCCC3", "lt_gt_eq": "=", "readout_number": 131}
{"given_smiles": "O=C1c2c(sc3c2CCN(Cc2ccccc2)C3)NC2=NCCCN12", "lt_gt_eq": "=", "readout_number": 51.5}
{"given_smiles": "O=C1c2c(sc3c2CCCC3)NC2=NCCCN12", "lt_gt_eq": ">", "readout_number": 200}
{"given_smiles": "O=C1c2c(sc3c2CCCC3)NC2=NCCN12", "lt_gt_eq": ">", "readout_number": 200}
{"given_smiles": "C1=Nc2sc3c(c2C2=NCCCN12)CCN(Cc1ccccc1)C3", "lt_gt_eq": "=", "readout_number": 119}
{"given_smiles": "O=C1c2c(sc3c2CCN(Cc2ccccc2)C3)NC2=NCCN12", "lt_gt_eq": ">", "readout_number": 200}

---

pIC50: −log10 of the molar value.
# pIC50 per entry for Acetylcholinesterase (Electrophorus electricus)

{"given_smiles": "O=C1c2c(sc3c2CCCC3)NC2=NCCN12", "measurement_target": "Acetylcholinesterase (Electrophorus electricus)", "lt_gt_eq": "<", "pIC50": 4.12}
{"given_smiles": "C1=Nc2sc3c(c2C2=NCCN12)CCN(Cc1ccccc1)C3", "measurement_target": "Acetylcholinesterase (Electrophorus electricus)", "lt_gt_eq": "=", "pIC50": 5.51}
{"given_smiles": "O=C1c2c(sc3c2CCN(Cc2ccccc2)C3)NC2=NCCN12", "measurement_target": "Acetylcholinesterase (Electrophorus electricus)", "lt_gt_eq": "=", "pIC50": 5.87}
{"given_smiles": "O=C1c2c(sc3c2CCCC3)NC2=NCCCN12", "measurement_target": "Acetylcholinesterase (Electrophorus electricus)", "lt_gt_eq": "<", "pIC50": 4.12}
{"given_smiles": "C1=Nc2sc3c(c2C2=NCCCN12)CCCC3", "measurement_target": "Acetylcholinesterase (Electrophorus electricus)", "lt_gt_eq": "=", "pIC50": 5.65}
{"given_smiles": "O=C1c2c(sc3c2CCN(Cc2ccccc2)C3)NC2=NCCCN12", "measurement_target": "Acetylcholinesterase (Electrophorus electricus)", "lt_gt_eq": "=", "pIC50": 5.82}
{"given_smiles": "C1=Nc2sc3c(c2C2=NCCN12)CCCC3", "measurement_target": "Acetylcholinesterase (Electrophorus electricus)", "lt_gt_eq": "=", "pIC50": 5.76}
{"given_smiles": "C1=Nc2sc3c(c2C2=NCCCN12)CCN(Cc1ccccc1)C3", "measurement_target": "Acetylcholinesterase (Electrophorus electricus)", "lt_gt_eq": "=", "pIC50": 5.76}

---

This listing pairs molecules with measured pKi.
Molecular target: Acetylcholinesterase (Electrophorus electricus, UniProt O42275)
Sequence (O42275 whole entry): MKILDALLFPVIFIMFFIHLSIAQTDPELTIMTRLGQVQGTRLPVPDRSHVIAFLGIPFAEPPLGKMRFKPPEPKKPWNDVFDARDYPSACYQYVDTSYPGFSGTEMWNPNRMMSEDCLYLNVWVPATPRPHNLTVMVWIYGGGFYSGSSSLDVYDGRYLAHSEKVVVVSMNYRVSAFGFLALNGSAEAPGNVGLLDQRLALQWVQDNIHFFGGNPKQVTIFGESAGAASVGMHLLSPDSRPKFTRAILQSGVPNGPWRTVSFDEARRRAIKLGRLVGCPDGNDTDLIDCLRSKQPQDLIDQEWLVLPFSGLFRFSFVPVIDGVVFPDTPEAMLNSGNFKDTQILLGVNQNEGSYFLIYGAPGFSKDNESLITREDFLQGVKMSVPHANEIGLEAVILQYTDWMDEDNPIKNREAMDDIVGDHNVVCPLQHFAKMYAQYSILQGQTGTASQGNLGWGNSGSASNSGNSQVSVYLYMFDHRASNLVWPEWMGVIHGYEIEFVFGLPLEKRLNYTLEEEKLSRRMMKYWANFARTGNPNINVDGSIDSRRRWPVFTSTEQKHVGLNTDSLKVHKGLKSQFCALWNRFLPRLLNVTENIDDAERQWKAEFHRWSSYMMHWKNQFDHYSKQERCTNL
Test: Cholinesterase Inhibition Assay
Conditions: pH 7.3; 25 °C
pKi: −log10 of the molar value.

{"given_smiles": "O=C1c2c(sc3c2CCN(Cc2ccccc2)C3)NC2=NCCN12", "pKi": 5.81}
{"given_smiles": "C1=Nc2sc3c(c2C2=NCCCN12)CCN(Cc1ccccc1)C3", "pKi": 5.82}
{"given_smiles": "C1=Nc2sc3c(c2C2=NCCCN12)CCCC3", "pKi": 5.72}
{"given_smiles": "O=C1c2c(sc3c2CCN(Cc2ccccc2)C3)NC2=NCCCN12", "pKi": 5.68}
{"given_smiles": "C1=Nc2sc3c(c2C2=NCCN12)CCCC3", "pKi": 5.88}
{"given_smiles": "C1=Nc2sc3c(c2C2=NCCN12)CCN(Cc1ccccc1)C3", "pKi": 5.63}
